# Measurement target: cyclooxygenase-2 (Homo sapiens, UniProt P35354)
# Construct: human osteosarcoma 143 cells (which specifically express cyclooxygenase-2); endogenous in cells; host or cells: human osteosarcoma 143 cells
# Sequence (P35354 18-604): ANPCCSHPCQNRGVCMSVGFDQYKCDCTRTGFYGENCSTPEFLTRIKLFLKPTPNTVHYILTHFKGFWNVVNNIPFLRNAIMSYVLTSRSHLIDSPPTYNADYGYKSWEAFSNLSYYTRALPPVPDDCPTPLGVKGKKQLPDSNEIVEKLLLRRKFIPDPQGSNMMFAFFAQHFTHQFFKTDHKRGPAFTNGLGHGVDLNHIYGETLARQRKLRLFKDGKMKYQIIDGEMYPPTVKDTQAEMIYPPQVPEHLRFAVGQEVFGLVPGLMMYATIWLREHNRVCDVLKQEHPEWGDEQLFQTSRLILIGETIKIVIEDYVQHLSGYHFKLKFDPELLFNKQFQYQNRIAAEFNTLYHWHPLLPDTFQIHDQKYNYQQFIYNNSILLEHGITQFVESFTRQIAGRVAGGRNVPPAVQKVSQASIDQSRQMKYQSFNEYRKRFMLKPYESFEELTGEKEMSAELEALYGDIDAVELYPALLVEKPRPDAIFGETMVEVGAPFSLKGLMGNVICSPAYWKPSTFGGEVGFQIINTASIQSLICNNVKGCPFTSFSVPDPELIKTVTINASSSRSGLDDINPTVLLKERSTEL
# Test protocol: Whole cell cyclooxygenase assay, PGE2 synthesis in human osteosarcoma 143 cells (COX-2)
# Type: cell-based
Endpoint label: pIC50
Note on units: pIC50 is unitless, being -log10 of a concentration expressed in mol/L.

Find the recorded pIC50 belonging to CCc1csc(Sc2cc3c(cc2NS(C)(=O)=O)COC3=O)n1 [Example 1] and report it. 8.22

====

# Measurement target: cyclooxygenase-2 (Homo sapiens)
# Construct: human osteosarcoma 143 cells (which specifically express cyclooxygenase-2); endogenous in cells; host or cells: human osteosarcoma 143 cells
# Test protocol: Whole cell cyclooxygenase assay, PGE2 synthesis in human osteosarcoma 143 cells (COX-2)
# Type: cell-based
# Condition context: inhibition of PGE2 production; human osteosarcoma 143 cells, arachidonic acid, radioimmunoassay; read-out: Osteosarcoma cells (COX-2) IC50
Endpoint label: pIC50
Note on units: pIC50 is unitless, being -log10 of a concentration expressed in mol/L.

Observe how each entry below is paired with its result.
compound="CS(=O)(=O)Nc1cc2c(cc1Sc1ccc(Cl)cn1)C(=O)OC2 [Example 2]" meas_value=7.48
compound="Cc1csc(Sc2cc3c(cc2NS(C)(=O)=O)COC3=O)n1 [Example 4]" meas_value=7.44

Kindly review the next compound as well.
Find the recorded pIC50 belonging to CS(=O)(=O)Nc1cc2c(cc1Sc1nccs1)C(=O)OC2 [Example 3] and report it. 6.85
